// provenance: a melting point compilation (Tetko et al.; mined from patent text by program, amines drawn as free bases though some values may be those of a salt)

So I've got a bunch of molecules here, and I need their melting point values.

Here's what some known entries look like.
MOLECULE SMILES: CCOC(=O)COc1ccc(C=O)c(O)c1
melting point: 97 to 99 °C
--
MOLECULE SMILES: CCOC(=O)C1CCN(C(=O)c2[nH]c(C)c(-c3nc4ccc(C(=O)c5ccccc5)cc4[nH]3)c2C)CC1
melting point: 272 to 274 °C
--
MOLECULE SMILES: O=C1NC(=O)c2c1c(-c1ccccc1Cl)cc1c2cc(C(=O)O)n1CCCBr
melting point: 294 to 295 °C

I need melting point for every entry listed below, if you could help.
1. Cn1cc(CO)c(=O)c2ccc(Br)cc21
2. Cc1nc2c(C#N)c(C)nn2c(Cl)c1CCCl

> 300 °C
113 to 115 °C

====

PROPERTY MEASURED: melting point

COMPOUND: CSc1ncc2cc(Oc3ccc(F)cc3F)c(NC(=O)NC(C)(C)C)nc2n1
melting point: 195 to 201 °C

Count: 6. Required value per item: melting point.
1. Cc1noc(NS(=O)(=O)c2ccccc2-c2ccc(-c3ncco3)cc2CCN(C)C(=O)Cc2ccccc2)c1C
2. CSc1ncc2cc(CBr)c(=O)n(C3CCCC3)c2n1
3. CC(Cl)C(=O)CCCCN1C(=O)c2ccccc2C1=O (stereo not given)
4. CC(=O)N1CC(CCN2CC=C(c3ccc(Cl)cc3)CC2)c2ccccc21 (stereo not given)
5. O=C(Nc1ccc(-n2ncn(-c3ccc(OCC(F)(F)C(F)F)cc3)c2=O)cc1)Oc1ccccc1
6. BrCc1ccc2ncoc2c1

1. 98 to 106 °C
2. 103 to 105 °C
3. 61 to 63 °C
4. 116 to 118 °C
5. 204 to 206 °C
6. 52 to 56 °C

# return melting point for each item in the list
1. CNC(=O)N1CC(Oc2cccc(Cl)c2)C1
2. [O-][N+]1=C(c2ccccc2F)c2cc(Cl)ccc2-n2cnc(N3CCCC3)c2C1
3. O=C(O)C(=O)c1ccc2c(c1)CCS2

1. 140 to 141 °C
2. 190 to 192 °C
3. 122 to 123 °C

====

PROPERTY MEASURED: melting point

Known melting point results, listed for orientation:
COMPOUND: O=C1OC(=O)c2cc(Oc3ccc(-c4ccccc4)cc3)ccc21
melting point: 199 °C

COMPOUND: COc1cccc(OC)c1N(COC(C)C)C(=O)CCl
melting point: 85 to 90 °C

COMPOUND: CC(=O)NCC1CC(c2ccc(-n3ccc(CO)c3)c(F)c2)=NO1 (single isomer, unassigned; (-))
melting point: 162 to 164 °C

COMPOUND: COc1cc(C(=O)C#CCO)cc(OC)c1OC
melting point: 104 to 105 °C

COMPOUND: Cn1cc(C(=O)O)c(=O)c2cc3cc(F)c(N4CCNC(c5ccccc5F)C4)cc3nc21 (racemic)
melting point: 264 °C

For each of the compounds below, note its melting point.
1. COc1cc(C=CC(=O)CC(=O)C(F)(F)F)ccc1O
2. CCOC(=O)CN(CP(=O)(OSc1cc(Cl)ccc1Cl)OSc1cc(Cl)ccc1Cl)C(=O)C(F)(F)F
3. O=C1C(=O)c2ccccc2C2=C1SCC1(CCN(C(=O)c3cc4ccccc4s3)CC1)O2
4. CN1N=C(c2ccc3c(c2)N(S(C)(=O)=O)CCO3)CCC1=O
5. CCOC(=O)C1CN2c3c(c(F)c(F)c(F)c3C1=O)CCN2C (stereo unspecified)
6. CN(C)c1cc2c(C(F)(F)F)cccc2s1

["97 to 100 °C", "77 to 80 °C", "110 to 112 °C", "162 to 165 °C", "236 to 240 °C", "70 to 73 °C"]

Batch request: melting point per item, same order as input.
1. CC(=O)NCc1c(C)cc(CO)cc1C
2. O=C(Nc1cccc(-n2nc(C(F)(F)F)cc2C(F)(F)F)c1)c1ccc(F)cc1F
3. COc1ccc(C(=O)Nc2ccc3ccc(Oc4cccc(C)c4)nc3n2)cc1

194 °C
133 to 134 °C
160 °C

====

For each entry below, report its melting point value.

Look over these answered cases.
COMPOUND: O=C1CCC(N2C(=O)c3cccc(OCc4ccc(CN5CCN6N=C(C(F)(F)F)NC6C5)cc4)c3C2=O)C(=O)N1 (stereo not given)
melting point: 128 to 130 °C
--
COMPOUND: COc1ccc2c(c1)N(c1ccccc1F)C(=O)C2(C)NC(=O)OCc1ccccc1 (stereo not given)
melting point: 149 to 151 °C
--
COMPOUND: Fc1ccc(C(c2ccncc2)C2CCCCC2)cc1 (stereo not given)
melting point: 78 to 81 °C
--
COMPOUND: CCN(c1nc(-c2c(F)cccc2OC)c2[nH]ncc2n1)c1ccc(C(F)(F)F)cc1Cl
melting point: 184 to 185 °C
--
COMPOUND: O=C(CCCl)Nc1ccccc1
melting point: 114 to 116 °C

Record melting point per entry; entries follow.
1. CC1(C)Oc2ccncc2[C@@H](N2CCCC2=O)[C@@H]1O (relative stereo)
2. O=C[C@H](OCc1ccccc1)[C@@H](OCc1ccccc1)[C@H](OCc1ccccc1)[C@H](O)COCc1ccccc1
3. CCn1c2c(c3ccccc31)CCSC2(C)CCN(C)C (stereo not given)
4. CC1(C)CCc2cc(O)c(C=O)cc21
5. COc1nc(Cc2ccccc2NS(=O)(=O)C(F)(F)F)nc(OC)n1

["253 °C", "151 °C", "86 to 88 °C", "40 to 40.5 °C", "101 to 108 °C"]

====

Provide the reported melting point of each item.

Recorded melting point, per entry:
MOLECULE SMILES: O=[N+]([O-])c1cccnc1Nc1ccccc1
melting point: 66 to 68 °C
//
MOLECULE SMILES: O=C(Nc1ccc(C(=O)Nc2ccc(Br)cn2)cn1)c1ccc(Br)nc1
melting point: 245 to 247 °C
//
MOLECULE SMILES: CCCc1c(OCCOCCOc2c(C(C)=O)ccc(OCCCCCC(=O)O)c2CCC)ccc(C(C)=O)c1O
melting point: 55 to 57 °C

Record melting point per entry; entries follow.
1. CC(=NC(=Nc1ccccc1)N1CCOCC1)NC(C)(C)C
2. Cc1nc(-c2ccc3c(c2)CCCC3)co1
3. Cc1cc(Cl)cc(C(=O)NNCC(=O)NCc2ccccc2)c1NC(=O)c1cc(Br)nn1-c1ncccc1Cl

["164 to 166 °C", "53 to 54 °C", "120 to 121 °C"]

====

PROPERTY MEASURED: melting point

// worked examples, melting point included
COMPOUND: CN1CCC(c2ccc(Nc3cc(-c4cccc(-n5ncc6cc(C(C)(C)C)cc(F)c6c5=O)c4CO)nn(C)c3=O)nn2)CC1
melting point: 260 to 265 °C
//
COMPOUND: Cc1c(=O)o[n-][n+]1CCSC12CC3CC(CC(C3)C1)C2
melting point: 92 to 93 °C
//
COMPOUND: O=C1C2=C(CCCC2)C(=O)N1c1ccc(Cl)c2c1CC(CBr)O2 (centres undefined)
melting point: 134 to 136 °C
//
COMPOUND: O[C@@H]1CCC(c2ccccc2)(c2ccccc2)[C@@H]2CN(Cc3ccccc3)C[C@H]12
melting point: 154 °C
//
COMPOUND: CN(c1ccncc1[N+](=O)[O-])n1cccc1C=O
melting point: 101 to 107 °C
//
COMPOUND: CCCCc1cccn1NS(=O)(=O)C1CCCC=C1C(=O)OCC (centres undefined)
melting point: 49 to 50 °C
//
COMPOUND: COC(=O)c1ccc2c(c1)SC(c1ccccc1)C(c1ccc3c(c1)NC(=O)CO3)=C2 (centres undefined)
melting point: 217 to 219 °C
//
COMPOUND: COc1ccc2cc(C(=O)Cl)oc2c1
melting point: 96 to 99 °C

Next compound, melting point to be filled in.
Assign melting point to the following record: CCOC(=O)C(=O)Nc1cc(C(F)(F)F)c(S(=O)(=O)NC(=O)C(=O)OCC)cc1[N+](=O)[O-]
175 to 180 °C

====

Would you mind telling me the reported melting point of each entry?

Before answering, review these 5 worked examples.
COMPOUND: C=CCOc1ccc(C(C)=O)c(NC(C)=O)c1
melting point: 63 to 64 °C
--
COMPOUND: CN1C(=O)CCC2(C)C3CCC4(C)C(OC(=O)NCc5ccccc5)CCC4C3CCC12 (stereo not given)
melting point: 216 to 217 °C
--
COMPOUND: CC(C)(C)OC(=O)N1CCn2c(Cl)c(-c3ccccc3)c(C(N)=O)c2C1
melting point: 178 to 180 °C
--
COMPOUND: Cc1cc(Br)cnc1CCCCNC1=NS(=O)(=O)c2cc(Br)ccc21
melting point: 224 to 232 °C
--
COMPOUND: CCOC(=O)c1cn(Cc2ccccc2)nc1NC(=O)NC(C)(C)C
melting point: 130 to 131 °C

Would you be so kind as to report melting point for each listed record?
1. O=C(NCCCCO)OCc1ccccc1
2. O=CC(=Cc1ccccc1OCc1ccccc1)C(C=O)=Cc1ccccc1OCc1ccccc1
3. COc1ccccc1-c1nc2nc(SC)nnc2c(=O)[nH]1
4. CN1C(=O)C(C(=O)Nc2ccc(C(F)(F)F)cc2)S(=O)(=O)c2cc(F)ccc21 (stereo not given)
5. COc1cccc(C(O)c2nc3c(cc2C)CCCCC3)c1 (stereo not given)

1: 80 to 81 °C; 2: 120 to 121 °C; 3: 268 °C; 4: 146 to 148 °C; 5: 104 to 106 °C
